tested on: CP191; experiment: qHTS profiling for inhibitors of Plasmodium falciparum proliferation (AID 504749); note: nearly all actives have a fitted effect of over 60% in size; conditions: P. falciparum in erythrocytes, SYBR Green DNA, 72 h; series mostly up to 28.7 µM
Records with an inconclusive call do not appear. Active and inactive are the calls of the source. Calls come from the whole dose curve; as a rule, active = well fitted inhibition curve with a large enough effect; inconclusive = small, poorly fitted or top-dose-only effect; inactive = flat fitted curve, though single readings scatter.
Return exactly one item of Yes (active), No (inactive)

Sample answers from the record:
{"columns": ["sample.smiles", "target.under.test", "class.name"],
 "data": [
  ["CN1CCC(=C2c3ccccc3C=Cc3ccccc32)CC1", "CP191", "No"],
  ["CC(=O)OCC(CCn1cnc2cnc(N)nc21)COC(C)=O", "CP191", "No"]
]}

I would be grateful if you could indicate the recorded call for CCCCc1oc2ccccc2c1C(=O)c1cc(I)c(OCCN(CC)CC)c(I)c1 .
Yes

====

tested on: HeLa; experiment: Primary qHTS to identify gynecologic anti-cancer compounds using libraries of approved drugs and bioactive compounds (AID 1345084); details: Gynecologic cancer cell panel viability, ATPlite luminescence, 48 h; series mostly up to 57.5 µM; note: % is set by controls: 0 for no effect and ±100 for the full control effect; nearly all actives have a fitted effect of over 55% in size
Inconclusive results are not listed. The source made the active and inactive calls. Calls come from the whole dose curve; as a rule, active = well fitted cell-killing curve with a large enough effect; inconclusive = small, poorly fitted or top-dose-only effect, or effect the other way; inactive = flat fitted curve, though single readings scatter.
outcome.measure: outcome

{"columns": ["molecule", "observed.value"],
 "data": [
  ["O=C(c1ccc(F)cc1)C1CCN(CCn2c(=O)[nH]c3ccccc3c2=O)CC1", "inactive"],
  ["Cn1ccc2cc3c(cc21)CCN3C(=O)Nc1cccnc1", "inactive"],
  ["Cc1ccc(-c2cc(C(F)(F)F)nn2-c2ccc(S(N)(=O)=O)cc2)cc1", "inactive"],
  ["COc1cc2nc(N(C)CCCNC(=O)C3CCCO3)nc(N)c2cc1OC (stereo unspecified)", "inactive"],
  ["CCC1(C)CC(=O)NC1=O (stereo unspecified)", "inactive"]
]}

# outcome of CS(=O)(=O)Nc1ccc([N+](=O)[O-])cc1Oc1ccccc1 = inactive

Documented outcome of CN(C)CCCN1c2ccccc2CCc2ccc(Cl)cc21 : inactive

The reported value for CCN1CCCC1CNC(=O)c1cc(S(=O)(=O)CC)c(N)cc1OC (stereo unspecified) in terms of outcome is inactive

Reported outcome ( COc1cc2nc(N3CCN(C(=O)C4COc5ccccc5O4)CC3)nc(N)c2cc1OC (stereo unspecified) ) = inactive

outcome recorded for this molecule, CCOC(=O)Nc1ccc(NCc2ccc(F)cc2)nc1N , is inactive

The measured outcome associated with NC(=O)OCC(COC(N)=O)c1ccccc1 reads inactive

====

assay: Quantitative High-Throughput drug screen in 47 multiple myeloma cell lines against the NCATS MIPE library collection: OPM1_PLB cell viability assay (AID 1918989); details: CellTiter-Glo, 48 h; series mostly up to 45.8 µM; note: nearly all actives have a fitted effect of over 40% in size
Results filed as inconclusive are left out. The source made the active and inactive calls. Calls follow the shape of the dose curve; as a rule, active = well fitted cell-killing curve with a large enough effect; inconclusive = small, poorly fitted or top-dose-only effect, or effect the other way; inactive = no such curve, though single readings can be large or run the other way.
Please state which outcome applies, choosing from active, inactive

Some entries whose results are on file:
{"columns": ["compound", "class.name"],
 "data": [
  ["COc1ccccc1OCC(O)CN1CCN(CC(=O)Nc2c(C)cccc2C)CC1 (stereo unspecified)", "inactive"],
  ["N[C@@H](Cc1c[nH]c2ccc(O)cc12)C(=O)O", "inactive"],
  ["CC[C@@]1(O)C(=O)OCc2c1cc1n(c2=O)Cc2cc3c(CN(C)C)c(O)ccc3nc2-1", "active"],
  ["CNCCCC12CCC(c3ccccc31)c1ccccc12", "active"]
]}

For CN(C)c1nc(N(C)C)nc(N(C)C)n1 , which call appears in the assay record?
inactive

What classification did COc1nc(C)nc(Cl)c1NC1=NCCN1 end up with in this test?
inactive

Per the assay record, what outcome was assigned to CN1C2CCC1CC(OC(=O)C(CO)c1ccccc1)C2 (stereo unspecified) ?
inactive

Each compound tested received a call. Report the one for O=C(Nc1ccc([N+](=O)[O-])cc1Cl)c1cc(Cl)ccc1O .
active

Check the results log: what was the call for NCCS(=O)(=O)O ?
inactive

So what was the verdict on CCC1(c2ccccc2)C(=O)NCNC1=O in this test?
active

How did this test come out for CCOC(=O)c1ncn2c1CN(C)C(=O)c1cc(F)ccc1-2 ?
inactive

====

target: Guanine nucleotide-binding protein G(i) subunit alpha-1 (Homo sapiens); assay: qHTS Assay for Inhibitors of RGS12 GoLoco Motif Activity (Green Fluorophore) (AID 879); details: Galphai1/FITC-RGS12 GoLoco peptide, fluorescence polarization; series mostly up to 57.1 µM;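 note: 0% = labeled peptide with Gαi1 and full inhibition = labeled peptide alone without protein; negative values mean loss of peptide binding seen as reduced polarization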
Calls of active or inactive are those of the source. The call rests on the fitted dose curve; in most records, active means well fitted curve in the direction sought with a large enough effect; inconclusive means small, poorly fitted or top-dose-only effect, or another doubt; inactive means no such curve, though single readings can be large or run the other way.
outcome.measure: outcome

Below, 5 compounds whose answers are already recorded.
{"columns": ["compound", "observed.value"],
 "data": [
  ["Nc1ccn([C@H]2CC[C@@H](CO)O2)c(=O)n1", "inactive"],
  ["Clc1ccccc1C(c1ccccc1)(c1ccccc1)n1ccnc1", "inactive"],
  ["N[C@@H](Cc1c[nH]c2ccc(O)cc12)C(=O)O", "inactive"],
  ["COC(=O)Nc1nc2ccc(C(=O)c3cccs3)cc2[nH]1", "inactive"],
  ["O=C1N(c2ccccc2)c2ccccc2C1(Cc1ccncc1)Cc1ccncc1", "inactive"]
]}

In the following, a different compound is considered.
Record for O=C(CCCN1CCC(O)(c2ccc(Cl)cc2)CC1)c1ccc(F)cc1 under target or system Guanine nucleotide-binding protein G(i) subunit alpha-1 (Homo sapiens): outcome reported as inactive

====

assay: High-throughput drug toxicity screening in the BPDCN cell line Gen2.2 (AID 1224824); conditions: Gen2.2 BPDCN cells; at 45.8 µM (top of the series) unless noted;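 note: cells exposed to compounds for 48 h before reading; 100% = DMSO and 0% = bortezomib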
outcome.measure: cell viability, % of control (lower = more cytotoxic) (%)
Return type: number; implicit unit %.

{"columns": ["compound", "observed.value"],
 "data": [
  ["CN1CCC(=C2c3ccccc3CC(=O)c3sccc32)CC1", 14.3],
  ["O=C(c1ccc(OCCN2CCCCC2)cc1)c1c(-c2ccc(O)cc2)sc2cc(O)ccc12", 67.1],
  ["O=C1c2c(O)ccc(O)c2C(=O)c2c(NCCNCCO)ccc(NCCNCCO)c21", 6.11],
  ["Cc1ccccc1N1C(=O)c2cc(S(N)(=O)=O)c(Cl)cc2NC1C (stereo unspecified)", 73.5],
  ["CCN1CCCC1CNC(=O)c1cc(S(=O)(=O)CC)c(N)cc1OC (stereo unspecified)", 143],
  ["CC[N+](CC)(CC)CCOc1cccc(OCC[N+](CC)(CC)CC)c1OCC[N+](CC)(CC)CC", 124]
]}

The value of cell viability, % of control (lower = more cytotoxic) measured for the compound CCc1cccc2c3c([nH]c12)C(CC)(CC(=O)O)OCC3 (stereo unspecified) turned out to be 138

Input CCC1(C)CC(=O)NC1=O (stereo unspecified) . Output cell viability, % of control (lower = more cytotoxic): 184

====

Assay: Cell Viability - LYMP2-006 (AID 978);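 note: cells exposed to compound for 24 hours; % is set by controls: 0 for no effect and ±100 for the full control effect; nearly all actives have a fitted effect of over 60% in size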
Conditions: LYMP2-006 lymphoblastoid cell viability, qHTS; series mostly up to 92.2 µM
From the text: NIH Chemical Genomics Center [NCGC] NIH Molecular Libraries Screening Centers Network [MLSCN] National Institutes of Environmental Health Sciences [NIEHS] National Toxicology Program [NTP] We have developed a 1536-well cell-based assay for quantitative high throughput screening (qHTS) against a number of cell lines to determine in vitro cytotoxicity of small molecules. […] 8. Detection; Luminescence; Viewlux plate reader […]
Records with an inconclusive call do not appear. The source made the active and inactive calls. Calls come from the whole dose curve; as a rule, active = well fitted cell-killing curve with a large enough effect; inconclusive = small, poorly fitted or top-dose-only effect; inactive = flat fitted curve, though single readings scatter.
outcome.measure: outcome

Use the examples below as a reference point.
{"columns": ["compound", "outcome"],
 "data": [
  ["NCCS(=O)(=O)O", "inactive"],
  ["Cn1c(=O)c2[nH]cnc2n(C)c1=O", "inactive"],
  ["CC(C)C(=O)Nc1ccc([N+](=O)[O-])c(C(F)(F)F)c1", "inactive"],
  ["Clc1ccc(C(c2ccccc2Cl)C(Cl)Cl)cc1 (stereo unspecified)", "inactive"],
  ["CCC1(c2ccccc2)C(=O)NCNC1=O", "inactive"],
  ["Cc1cn([C@H]2C=C[C@@H](CO)O2)c(=O)[nH]c1=O", "inactive"],
  ["Nc1ccn([C@H]2CC[C@@H](CO)O2)c(=O)n1", "inactive"],
  ["O=c1c(-c2ccc(O)cc2)coc2cc(O)cc(O)c12", "inactive"]
]}

Entry Cc1ccc(-c2cc(C(F)(F)F)nn2-c2ccc(S(N)(=O)=O)cc2)cc1 ; outcome = inactive

Item: NS(=O)(=O)c1cc2c(cc1Cl)NCNS2(=O)=O | outcome: inactive

Data point: N[C@@H](Cc1c[nH]c2ccc(O)cc12)C(=O)O ; outcome = inactive

====

test: qHTS of pediatric cancer cell lines to identify multiple opportunities for drug repurposing: Confirmatory screen for SK-N-MC cells (AID 1347111); details: SK-N-MC cell viability; series mostly up to 45.9 µM;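 note: cells exposed to compound for 48 h before the readout; nearly all actives have a fitted effect of over 70% in size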
Inconclusive results are not listed. Calls of active or inactive are those of the source. Calls follow the shape of the dose curve; as a rule, active = well fitted cell-killing curve with a large enough effect; inconclusive = small, poorly fitted or top-dose-only effect; inactive = no such curve, though single readings can be large or run the other way.
API: response.call in active, inactive

Please review the entries below; each comes with its answer.
{"columns": ["compound", "class.name"],
 "data": [
  ["O=C(c1ccc(OCCN2CCCCC2)cc1)c1c(-c2ccc(O)cc2)sc2cc(O)ccc12", "active"],
  ["O=C1c2c(O)ccc(O)c2C(=O)c2c(NCCNCCO)ccc(NCCNCCO)c21", "active"],
  ["CC[C@@]1(O)C(=O)OCc2c1cc1n(c2=O)Cc2cc3c(CN(C)C)c(O)ccc3nc2-1", "active"]
]}

Could you kindly confirm the outcome this assay logged for NC12CC3CC(CC(C3)C1)C2 ?
inactive

# outcome recorded in this test, key = CC(COc1ccccc1)N(CCCl)Cc1ccccc1 (stereo unspecified)
active

// outcome(item) with item = NC(=O)NO
inactive
